B1: Leukocyte immunoglobulin-like receptor subfamily B member 2 (Homo sapiens), Q8N423 (parent)
chain: MTPIVTVLICLGLSLGPRTRVQTGTIPKPTLWAEPDSVITQGSPVTLSCQGSLEAQEYRLYREKKSASWITRIRPELVKNGQFHIPSITWEHTGRYGCQYYSRARWSELSDPLVLVMTGAYPKPTLSAQPSPVVTSGGRVTLQCESQVAFGGFILCKEGEDEHPQCLNSQPHARGSSRAIFSVGPVSPNRRWSHRCYGYDLNSPYVWSSPSDLLELLVPGVSKKPSLSVQPGPVMAPGESLTLQCVSDVGYDRFVLYKEGERDLRQLPGRQPQAGLSQANFTLGPVSRSYGGQYRCYGAHNLSSECSAPSDPLDILITGQIRGTPFISVQPGPTVASGENVTLLCQSWRQFHTFLLTKAGAADAPLRLRSIHEYPKYQAEFPMSPVTSAHAGTYRCYGSLNSDPYLLSHPSEPLELVVSGPSMGSSPPPTGPISTPGPEDQPLTPTGSDPQSGLGRHLGVVIGILVAVVLLLLLLLLLFLILRHRRQGKHWTSTQRKADFQHPAGAVGPEPTDRGLQWRSSPAADAQEENLYAAVKDTQPEDGVEMDTRAAASEAPQDVTYAQLHSLTLRRKATEPPPSQEREPPAEPSIYATLAIH

# Variants of: B1
# condition-set: with angl5_human ANGPTL5, Q86XS5
# Sequence (Q86XS5 whole entry): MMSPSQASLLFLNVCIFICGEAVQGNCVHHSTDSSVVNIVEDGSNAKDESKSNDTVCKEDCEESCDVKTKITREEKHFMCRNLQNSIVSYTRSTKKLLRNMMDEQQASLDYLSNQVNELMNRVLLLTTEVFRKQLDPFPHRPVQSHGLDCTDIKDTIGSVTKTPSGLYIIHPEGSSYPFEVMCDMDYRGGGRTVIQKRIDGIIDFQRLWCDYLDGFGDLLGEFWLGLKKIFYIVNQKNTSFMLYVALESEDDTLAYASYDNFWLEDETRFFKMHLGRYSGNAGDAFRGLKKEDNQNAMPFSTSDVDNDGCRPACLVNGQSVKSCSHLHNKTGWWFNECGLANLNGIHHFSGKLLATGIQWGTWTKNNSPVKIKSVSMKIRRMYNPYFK
parameter: effect of a mutation on the interaction

{"variant-description": "G97R", "parameter": "effect of a mutation on the interaction", "result": "with no effect"}
{"variant-description": "R59A;Y61A", "parameter": "effect of a mutation on the interaction", "result": "with no effect"}

Just for reference, IntAct's records for PubMed 24899623 is where these values come from.
